# MEASURED_TARGET: T1, human VEGFA (human, UniProt P15692)
# T1 chain: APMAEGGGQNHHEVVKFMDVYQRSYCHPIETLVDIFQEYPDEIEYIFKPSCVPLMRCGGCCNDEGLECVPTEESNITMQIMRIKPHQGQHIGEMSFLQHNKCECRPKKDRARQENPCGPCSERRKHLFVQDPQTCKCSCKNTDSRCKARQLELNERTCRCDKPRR
# MEASUREMENT_PROTOCOL: BLI
QUANTITY: Kd (nM)

Answered examples (2):
- BINDER: "4B11 (antibody, V domains shown) VH: QVQLVESGGGVVQPGRSLRLSCAASGLSFSQYEMHWVRQAPGKEREFVAAISSSGISTYYADSVKGRFTISRDNSKNTLYLQMNSLRAEDTAVYYCAAELVDYHRWGYDYWGQGTLVTVSS"
  QUANTITY: "Kd"
  ASSAY_VALUE: 2.82
- BINDER: "7H3 (antibody, V domains shown) VH: QVQLVESGGGVVQPGRSLRLSCAASGFTFGPYAMHWVRQAPGKERELVAAIWPSGSITYYADSVKGRFTISRDNSKNTLYLQMNSLRAEDTAVYYCAFGSPTGSITYWGQGTLVTVSS"
  QUANTITY: "Kd"
  ASSAY_VALUE: 2.08

a. 1G1 (antibody, V domains shown) VH: QVQLVESGGGVVQPGRSLRLSCAASGLSFSYGTMAWVRQAPGKELELVAALSAGGTITYYADSVKGRFTISRDNSKNTLYLQMNSLRAEDTAVYYCAALGGYSGGSKYPYYDYWGQGTLVTVSS
b. 1C8 (antibody, V domains shown) VH: QVQLVESGGGVVQPGRSLRLSCAASGRSFSRYAMAWVRQAPGKERESVAVIGSGGGRTYYADSVKGRFTISRDNSKNTLYLQMNSLRAEDTAVYYCAARIYRVVGSGTYPAGYDYWGQGTLVTVSS
Request: I'm curious, which of these has a smaller Kd number: a or b ? Refer to your chosen item by its label in the answer.
Result: b
(b: 2.61 nM, a: 14.4 nM)
